meta.source: PubChem BioAssay AID1996

Conditions: buffer; pH 7.4; 200.0 µM

{"Molecule": "Cc1ccc([N+](=O)[O-])c(NC2OC(CO)C(O)C2O)c1 (configuration not stated)", "Value comparator": ">", "solubility kinetic, µg/mL": 42.6}
{"Molecule": "COc1ccc(-c2nc3n(c2C)Cc2ccccc2-3)cc1", "Value comparator": "=", "solubility kinetic, µg/mL": 16.3}
{"Molecule": "COCCNc1nc(SC)nc2sc3c(c12)CCN(C)C3", "Value comparator": "=", "solubility kinetic, µg/mL": 46.5}
{"Molecule": "CCOC(=O)c1sc(SC)nc1N", "Value comparator": "=", "solubility kinetic, µg/mL": 22.2}
{"Molecule": "CCOc1ccc(N2C(=O)CC(SCC(=O)O)C2=O)cc1 (configuration not stated)", "Value comparator": ">", "solubility kinetic, µg/mL": 46.4}
{"Molecule": "CCC(C(=O)OCCOCCN(CC)CC)c1ccccc1 (configuration not stated)", "Value comparator": "=", "solubility kinetic, µg/mL": 41.1}
{"Molecule": "Cc1cc(NC(=O)CSc2ncc(C(=O)O)n2-c2ccc(F)cc2)no1", "Value comparator": "=", "solubility kinetic, µg/mL": 55.4}
{"Molecule": "CNc1ccc(C(=O)c2ccccc2C(=O)O)cc1[N+](=O)[O-]", "Value comparator": ">", "solubility kinetic, µg/mL": 45}
{"Molecule": "COCCCN(C(=O)C1CCCCC1)c1c(N)n(Cc2ccccc2)c(=O)[nH]c1=O", "Value comparator": "=", "solubility kinetic, µg/mL": 14.3}
{"Molecule": "CCCN1C2CCCC1CC(NC(=O)c1ccccc1OC)C2 (configuration not stated)", "Value comparator": ">", "solubility kinetic, µg/mL": 47.5}
{"Molecule": "CC(C)N1CCN(Cc2cnc(-c3ccccc3)s2)CC1CCO (configuration not stated)", "Value comparator": ">", "solubility kinetic, µg/mL": 51.8}
{"Molecule": "Cl.O=C(CN1CCCCC1)c1ccc(F)cc1", "Value comparator": ">", "solubility kinetic, µg/mL": 38.7}
